Source: patent US20200246316A1

# PROTOCOL DETAILS: Rat 7-day repeat dose PO study (toxicokinetics, MTD)
# Type: in vivo
# STATED CONDITIONS: both sexes, Sprague Dawley (Hsd:SD), rat, in vivo, po, 2000 mg/kg, T1/2 (mean)
Where a name gives a salt, the structure may show the parent alone.
ENDPOINT NAME: half-life (h)

{"MOLECULE": "CC1(C)SC(Nc2ccccc2O)=N[C@@H]1C(=O)O [Compound 1, mono-hydrochloride]", "REPORTED MEASUREMENT": 3.9}

====

# PROTOCOL DETAILS: Rat pharmacokinetics after single PO dose
# STATED CONDITIONS: female, Sprague Dawley (CD IGS, Crl:CD(SD)), rat, plasma, po, 100 mg/kg
Where a name gives a salt, the structure may show the parent alone.
ENDPOINT NAME: concentration at 2 h

{"COMPOUND": "CC1(C)SC(Nc2ccccc2O)=N[C@@H]1C(=O)O [Compound 1, mono-hydrochloride]", "ENDPOINT NAME": "concentration at 2 h", "REPORTED MEASUREMENT": "62.6 µg/mL"}

====

# PROTOCOL DETAILS: pKa values
# Assay type: physicochemical
# STATED CONDITIONS: Acidic (second)
Where a name gives a salt, the structure may show the parent alone.

{"COMPOUND": "CC1(C)SC(Nc2ccccc2O)=N[C@@H]1C(=O)O [Compound 1, mono-hydrochloride]", "pKa": 10.2}

====

# PROTOCOL DETAILS: in vivo
# STATED CONDITIONS: female, Sprague Dawley (CD IGS, Crl:CD(SD)), rat, po, 100 mg/kg, Compound 1 Concentration in rat plasma, Female, 100 mg/kg single PO, 4 h post-dose, Average
Structures can show the parent of a compound that is named as a salt.
ENDPOINT NAME: concentration at 4 h

{"COMPOUND": "CC1(C)SC(Nc2ccccc2O)=N[C@@H]1C(=O)O [Compound 1, mono-hydrochloride]", "ENDPOINT NAME": "concentration at 4 h", "REPORTED MEASUREMENT": "22600 ng/mL"}

====

# PROTOCOL DETAILS: Dog single oral dose MTD study
# Assay type: in vivo
# STATED CONDITIONS: male, dog, plasma; 250 mg/kg PO (Dose 1; Day 1), 1 h, M, N = 2; read-out: Average Compound 1 Concentration in dog plasma
Counter-ions that a name gives are not always drawn.
ENDPOINT NAME: concentration at 1 h (µg/mL)

{"MOLECULE": "CC1(C)SC(Nc2ccccc2O)=N[C@@H]1C(=O)O [Compound 1, mono-hydrochloride]", "ENDPOINT NAME": "concentration at 1 h", "QUANTITY UNIT": "µg/mL", "REPORTED MEASUREMENT": 110}

====

# PROTOCOL DETAILS: Rat 28-day GLP repeat dose PO study (toxicokinetics)
# Format: in vivo
# STATED CONDITIONS: female, rat, in vivo, po, 50 mg/kg, Day 1, F, 50 mg/kg PO; read-out: CL/F (CLz/F) (converted)
Where a name gives a salt, the structure may show the parent alone.

{"MOLECULE": "CC1(C)SC(Nc2ccccc2O)=N[C@@H]1C(=O)O [Compound 1, mono-hydrochloride]", "QUANTITY UNIT": "mL/min/kg", "CL/F": 27.8}

====

# PROTOCOL DETAILS: Rat 28-day GLP repeat dose PO study (toxicokinetics)
# Assay type: in vivo
# STATED CONDITIONS: female, rat, in vivo, po, 2000 mg/kg, Day 14, F, 2000 mg/kg PO; read-out: V/F (Vss/F)
Counter-ions that a name gives are not always drawn.
ENDPOINT NAME: Vd/F (L/kg)

{"COMPOUND": "CC1(C)SC(Nc2ccccc2O)=N[C@@H]1C(=O)O [Compound 1, mono-hydrochloride]", "REPORTED MEASUREMENT": 10.9}

====

# PROTOCOL DETAILS: Rat 28-day GLP repeat dose PO study (toxicokinetics)
# Format: in vivo
# STATED CONDITIONS: male, rat, in vivo, po, 500 mg/kg, Day 14, M, 500 mg/kg PO; read-out: V/F (Vss/F)
Where a name gives a salt, the structure may show the parent alone.
ENDPOINT NAME: Vd/F (L/kg)

{"COMPOUND": "CC1(C)SC(Nc2ccccc2O)=N[C@@H]1C(=O)O [Compound 1, mono-hydrochloride]", "ENDPOINT NAME": "Vd/F", "REPORTED MEASUREMENT": 18.5}

====

# TESTED SYSTEM: CYP1A2 (Homo sapiens, UniProt P05177)
# Construct: tissue BD Gentest; host or cells: human liver microsomes
# Sequence (P05177 whole entry): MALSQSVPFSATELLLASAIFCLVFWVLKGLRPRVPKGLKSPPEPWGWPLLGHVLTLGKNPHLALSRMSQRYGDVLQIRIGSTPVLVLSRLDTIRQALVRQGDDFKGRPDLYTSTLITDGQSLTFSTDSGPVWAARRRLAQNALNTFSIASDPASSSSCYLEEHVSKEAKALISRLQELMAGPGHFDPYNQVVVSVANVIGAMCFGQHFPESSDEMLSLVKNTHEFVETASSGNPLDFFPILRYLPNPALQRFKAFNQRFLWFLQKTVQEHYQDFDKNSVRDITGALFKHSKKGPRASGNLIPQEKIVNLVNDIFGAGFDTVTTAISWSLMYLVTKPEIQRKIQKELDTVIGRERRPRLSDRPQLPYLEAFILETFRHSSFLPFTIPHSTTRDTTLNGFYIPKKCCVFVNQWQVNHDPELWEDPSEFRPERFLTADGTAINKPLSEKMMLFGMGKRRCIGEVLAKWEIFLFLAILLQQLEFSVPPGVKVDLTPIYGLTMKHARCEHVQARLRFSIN
# PROTOCOL DETAILS: CYP inhibition in human liver microsomes
# Type: in vitro ADME
# STATED CONDITIONS: CYP1A2; read-out: IC50
# Method: At varying concentrations, Compound 1 was incubated with human liver microsomes (HLM) in the presence of known substrates (see below) of specific CYP isoforms, in order to measure inhibition induced by Compound 1. Microsomes were incubated with known inhibitors (positive controls) of each CYP isoform, in the presence of substrate, in order to measure the metabolic activity of the microsomes.
Structures can show the parent of a compound that is named as a salt.

{"MOLECULE": "CC1(C)SC(Nc2ccccc2O)=N[C@@H]1C(=O)O [Compound 1, mono-hydrochloride]", "IC50": "> 100 µM"}

====

# PROTOCOL DETAILS: Dog 28-day repeat dose PO study
# Type: in vivo
# STATED CONDITIONS: female, beagle, dog, in vivo, po, 100 mg/kg, Day 28, 100 mg/kg PO, F; read-out: Cmax
Structures can show the parent of a compound that is named as a salt.
ENDPOINT NAME: Cmax (µg/mL)

{"COMPOUND": "CC1(C)SC(Nc2ccccc2O)=N[C@@H]1C(=O)O [Compound 1, mono-hydrochloride]", "QUANTITY UNIT": "µg/mL", "REPORTED MEASUREMENT": 60.8}

====

# PROTOCOL DETAILS: Dog 7-day repeat dose PO study
# Format: in vivo
# STATED CONDITIONS: female, plasma, 200 mg/kg, Day 1, 200 mg/kg PO, F, N = 1
Where a name gives a salt, the structure may show the parent alone.

{"COMPOUND": "CC1(C)SC(Nc2ccccc2O)=N[C@@H]1C(=O)O [Compound 1, mono-hydrochloride]", "QUANTITY UNIT": "µg/mL", "Cmax": 152}

====

# PROTOCOL DETAILS: Rat 28-day GLP repeat dose PO study (toxicokinetics)
# Type: in vivo
# STATED CONDITIONS: male, rat, in vivo, po, 1000 mg/kg, Day 14, M, 1000 mg/kg PO; read-out: V/F (Vss/F)
Where a name gives a salt, the structure may show the parent alone.
ENDPOINT NAME: Vd/F (L/kg)

{"COMPOUND": "CC1(C)SC(Nc2ccccc2O)=N[C@@H]1C(=O)O [Compound 1, mono-hydrochloride]", "ENDPOINT NAME": "Vd/F", "REPORTED MEASUREMENT": 18.1}

====

# PROTOCOL DETAILS: Rat 28-day GLP repeat dose PO study (toxicokinetics)
# Type: in vivo
# STATED CONDITIONS: male, rat, in vivo, po, 2000 mg/kg, Day 1, M, 2000 mg/kg PO; read-out: Cmax
Structures can show the parent of a compound that is named as a salt.

{"COMPOUND": "CC1(C)SC(Nc2ccccc2O)=N[C@@H]1C(=O)O [Compound 1, mono-hydrochloride]", "Cmax (µg/mL)": 83.1}

====

# PROTOCOL DETAILS: Rat 28-day GLP repeat dose PO study (toxicokinetics)
# Type: in vivo
# STATED CONDITIONS: female, rat, in vivo, po, 1000 mg/kg, Day 1, F, 1000 mg/kg PO
Structures can show the parent of a compound that is named as a salt.

{"MOLECULE": "CC1(C)SC(Nc2ccccc2O)=N[C@@H]1C(=O)O [Compound 1, mono-hydrochloride]", "AUC / µg·h/mL": 788}

====

# TESTED SYSTEM: CYP2D6 (Homo sapiens)
# Construct: tissue BD Gentest; host or cells: human liver microsomes
# Sequence (P10635 whole entry): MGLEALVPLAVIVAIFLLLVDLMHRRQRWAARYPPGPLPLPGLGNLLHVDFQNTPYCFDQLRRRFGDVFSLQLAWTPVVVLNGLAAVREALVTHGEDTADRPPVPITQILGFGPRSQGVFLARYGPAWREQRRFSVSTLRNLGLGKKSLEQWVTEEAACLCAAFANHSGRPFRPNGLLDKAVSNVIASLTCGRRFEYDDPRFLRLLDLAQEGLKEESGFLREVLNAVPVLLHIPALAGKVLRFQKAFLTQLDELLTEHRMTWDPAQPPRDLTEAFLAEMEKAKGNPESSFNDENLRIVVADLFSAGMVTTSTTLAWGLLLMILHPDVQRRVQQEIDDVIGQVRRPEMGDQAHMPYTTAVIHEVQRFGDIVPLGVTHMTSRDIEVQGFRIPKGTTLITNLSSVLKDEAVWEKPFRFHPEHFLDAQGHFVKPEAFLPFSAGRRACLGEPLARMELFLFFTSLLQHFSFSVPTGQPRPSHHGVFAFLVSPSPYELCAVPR
# PROTOCOL DETAILS: CYP inhibition in human liver microsomes
# Assay type: in vitro ADME
# STATED CONDITIONS: CYP2D6; read-out: IC50
pIC50: −log10 of the molar value. Counter-ions that a name gives are not always drawn.
ENDPOINT NAME: pIC50

{"COMPOUND": "CC1(C)SC(Nc2ccccc2O)=N[C@@H]1C(=O)O [Compound 1, mono-hydrochloride]", "REPORTED MEASUREMENT": "< 4.00"}

====

# PROTOCOL DETAILS: Dog single oral dose MTD study
# Format: in vivo
# STATED CONDITIONS: female, dog, plasma; 350 mg/kg PO (Dose 3; Day 9), 1 h, F, N = 2; read-out: Average Compound 1 Concentration in dog plasma
Where a name gives a salt, the structure may show the parent alone.

{"COMPOUND": "CC1(C)SC(Nc2ccccc2O)=N[C@@H]1C(=O)O [Compound 1, mono-hydrochloride]", "QUANTITY UNIT": "µg/mL", "concentration at 1 h": 154}
